- System: 648629-189-R-J1-PDC complex spheroids viability
- TEST SUMMARY: Anticancer human tumor 648629-189-R-J1-PDC patient-derived bladder carcinoma cell line growth inhibition [CLK]
- CONDITIONS USED: curve of first compound; second compound 0.0316 µM
- Source text: A high-throughput screen of multi-cell type tumor spheroids was designed to identify active combinations of […] and targeted small molecules. Complex spheroids include a stromal component modeled by human endothelial cells (HUVEC) and fibroblasts modeled by human mesenchymal stem cells (MSCs). […] Compounds. […] If the clinical Cmax for an agent had not been determined, the highest concentration tested was 10 microM. […]
# pIC50 per record follows
Scale: negative log10 of molar concentration, which is what pIC50 denotes.

Field: example entries. Status: answers known.
MOLECULE	pIC50
Nc1ccn(C2OC(CO)C(O)C2(F)F)c(=O)n1 (stereo not given) + CN1CCN(c2cc(C(=O)Nc3cc4cc(-c5cnn(C)c5)ccc4cn3)ccn2)CC1	7.28
COc1c(OCCCN2CCOCC2)ccc2c3n(c(=NC(=O)c4cnc(N)nc4)nc12)CCN3 + CN1CCN(c2cc(C(=O)Nc3cc4cc(-c5cnn(C)c5)ccc4cn3)ccn2)CC1	7.04
O=c1[nH]cc(F)c(=O)[nH]1 + CNC(=O)c1ccc(Nc2nc(OC3CCCC3)c3c(-c4ccc5nc(C)oc5c4)c[nH]c3n2)c(OC)c1	6.06
NC(=O)C(=Cn1cnc(-c2cc(C(F)(F)F)cc(C(F)(F)F)c2)n1)c1cncnc1 + CN1CCN(c2cc(C(=O)Nc3cc4cc(-c5cnn(C)c5)ccc4cn3)ccn2)CC1	7.26

Provide only the value of recorded pIC50 for Nc1ccccc1NC(=O)c1ccc(CNC(=O)OCc2cccnc2)cc1 + CNC(=O)c1ccc(Nc2nc(OC3CCCC3)c3c(-c4ccc5nc(C)oc5c4)c[nH]c3n2)c(OC)c1
5.80

Return the recorded pIC50 value; entry: O=c1[nH]cc(F)c(=O)[nH]1 + CN1CCN(c2cc(C(=O)Nc3cc4cc(-c5cnn(C)c5)ccc4cn3)ccn2)CC1
5.83

Output measured pIC50 for this item: CC(C)CC(NC(=O)C(Cc1ccccc1)NC(=O)c1cnccn1)B(O)O (stereo not given) + CN1CCN(c2cc(C(=O)Nc3cc4cc(-c5cnn(C)c5)ccc4cn3)ccn2)CC1
8.33

For the molecule CCCS(=O)(=O)Nc1ccc(F)c(C(=O)c2c[nH]c3ncc(-c4ccc(Cl)cc4)cc23)c1F + CNC(=O)c1ccc(Nc2nc(OC3CCCC3)c3c(-c4ccc5nc(C)oc5c4)c[nH]c3n2)c(OC)c1 , give its reported pIC50.
5.20

* * *

- System: 648629-189-R-J1-PDC complex spheroids viability
- TEST SUMMARY: Anticancer human tumor 648629-189-R-J1-PDC cell line growth inhibition [CLK];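 as to viability, T/C: drug exposure lasted seven days before viability readout; 100% = DMSO vehicle control wells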
- CONDITIONS USED: second compound 10 µM; first compound 3.16 µM; stronger effect = lower value
VALUE KIND: viability, T/C

MOLECULE	SYSTEM UNDER TEST	viability, T/C
O=C(c1cc(Cc2n[nH]c(=O)c3ccccc23)ccc1F)N1CCN(C(=O)C2CC2)CC1 + CN1CCN(c2cc(C(=O)Nc3cc4cc(-c5cnn(C)c5)ccc4cn3)ccn2)CC1	648629-189-R-J1-PDC complex spheroids viability	0.23%
COc1cccc2c1C(=O)c1c(O)c3c(c(O)c1C2=O)CC(O)(C(=O)CO)CC3OC1CC(N)C(O)C(C)O1 (stereo not drawn) + CNC(=O)c1ccc(Nc2nc(OC3CCCC3)c3c(-c4ccc5nc(C)oc5c4)c[nH]c3n2)c(OC)c1	648629-189-R-J1-PDC complex spheroids viability	2.28%

Now turn to the next molecule.
Dear colleague, please send me the reported viability, T/C for COc1ccc([C@@H](O)c2cc(-c3ncnc4cc(N5CCOCC5)ccc34)c(F)cc2Cl)nn1 + CNC(=O)c1ccc(Nc2nc(OC3CCCC3)c3c(-c4ccc5nc(C)oc5c4)c[nH]c3n2)c(OC)c1 when you can.
19.1%

* * *

- Tested on: 648629-189-R-J1-PDC complex spheroids viability
- TEST SUMMARY: Anticancer human tumor 648629-189-R-J1-PDC cell line growth inhibition [CLK]; active means viability on the fitted dose curve at most 10% of control; inactive means the rest
- CONDITIONS USED: second compound 1 µM; first compound 3.16 µM
// one of y = active, n = inactive, no free text

Solved entries (count: 8):
COMPOUND	LABEL VALUE
CC(Nc1ccc2c(c1)OCCn1cc(N3C(=O)OCC3C(F)F)nc1-2)C(N)=O (stereo not given) + CN1CCN(c2cc(C(=O)Nc3cc4cc(-c5cnn(C)c5)ccc4cn3)ccn2)CC1	y
CC1COCCN1c1cc(C2(S(C)(=N)=O)CC2)nc(-c2ccnc3[nH]ccc23)n1 (stereo not given) + CNC(=O)c1ccc(Nc2nc(OC3CCCC3)c3c(-c4ccc5nc(C)oc5c4)c[nH]c3n2)c(OC)c1	n
O=C(c1cc(Cc2n[nH]c(=O)c3ccccc23)ccc1F)N1CCN(C(=O)C2CC2)CC1 + CN1CCN(c2cc(C(=O)Nc3cc4cc(-c5cnn(C)c5)ccc4cn3)ccn2)CC1	y
COC1C=CCC(C)C(C)S(=O)(=O)NC(=O)c2ccc3c(c2)N(CC2CCC21)CC1(CCCc2cc(Cl)ccc21)CO3 (stereo not given) + CN1CCN(c2cc(C(=O)Nc3cc4cc(-c5cnn(C)c5)ccc4cn3)ccn2)CC1	y
COc1ccc([C@@H](O)c2cc(-c3ncnc4cc(N5CCOCC5)ccc34)c(F)cc2Cl)nn1 + CN1CCN(c2cc(C(=O)Nc3cc4cc(-c5cnn(C)c5)ccc4cn3)ccn2)CC1	y
CC1(C)CCC(CN2CCN(c3ccc(C(=O)NS(=O)(=O)c4ccc(NCC5CCOCC5)c([N+](=O)[O-])c4)c(Oc4cnc5[nH]ccc5c4)c3)CC2)=C(c2ccc(Cl)cc2)C1 + CNC(=O)c1ccc(Nc2nc(OC3CCCC3)c3c(-c4ccc5nc(C)oc5c4)c[nH]c3n2)c(OC)c1	n
CC1COCCN1c1cc(C2(S(C)(=N)=O)CC2)nc(-c2ccnc3[nH]ccc23)n1 (stereo not given) + CN1CCN(c2cc(C(=O)Nc3cc4cc(-c5cnn(C)c5)ccc4cn3)ccn2)CC1	y
Nc1ccn(C2OC(CO)C(O)C2(F)F)c(=O)n1 (stereo not given) + CN1CCN(c2cc(C(=O)Nc3cc4cc(-c5cnn(C)c5)ccc4cn3)ccn2)CC1	y

Short answer needed: outcome of this test for O=c1[nH]cc(F)c(=O)[nH]1 + CNC(=O)c1ccc(Nc2nc(OC3CCCC3)c3c(-c4ccc5nc(C)oc5c4)c[nH]c3n2)c(OC)c1 ?
n

Dear all, I need the recorded test outcome for C#Cc1c(F)ccc2cc(O)cc(-c3ncc4c(N5CC6CCC(C5)N6)nc(OCC56CCCN5CC(F)C6)nc4c3F)c12 (stereo not given) + CNC(=O)c1ccc(Nc2nc(OC3CCCC3)c3c(-c4ccc5nc(C)oc5c4)c[nH]c3n2)c(OC)c1 , thank you.
n

* * *

- Tested on: 648629-189-R-J1-PDC complex spheroids viability
- TEST SUMMARY: Anticancer human tumor 648629-189-R-J1-PDC cell line growth inhibition [CLK]
- CONDITIONS USED: curve of compound
VALUE KIND: IC50

Look up and state reported IC50 for CC1(C)CCC(CN2CCN(c3ccc(C(=O)NS(=O)(=O)c4ccc(NCC5CCOCC5)c([N+](=O)[O-])c4)c(Oc4cnc5[nH]ccc5c4)c3)CC2)=C(c2ccc(Cl)cc2)C1
> 10 µM

Output measured IC50 for this item: CC(CO)NC(=O)c1cc(-c2ccc(Cl)cc2)nn(-c2cnn(C)c2)c1=O (centres undefined)
> 10 µM

Tell me IC50 reported for COc1cccc2c1C(=O)c1c(O)c3c(c(O)c1C2=O)CC(O)(C(=O)CO)CC3OC1CC(N)C(O)C(C)O1 (centres undefined)
< 0.0316 µM

Indicate its recorded IC50; the compound in question is CCN1CCN(Cc2ccc(Nc3ncc(F)c(-c4cc(F)c5nc(C)n(C(C)C)c5c4)n3)nc2)CC1
> 1 µM

* * *

- System: 648629-189-R-J1-PDC complex spheroids viability
- TEST SUMMARY: Anticancer human tumor 648629-189-R-J1-PDC cell line growth inhibition [CLK];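 as to viability, T/C: drug exposure lasted seven days before viability readout; 100% = DMSO vehicle control wells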
- CONDITIONS USED: second compound 10 µM; first compound 0.0316 µM; stronger effect = lower value
- Text: A high-throughput screen of multi-cell type tumor spheroids was designed to identify active combinations of […] and targeted small molecules. Complex spheroids include a stromal component modeled by human endothelial cells (HUVEC) and fibroblasts modeled by human mesenchymal stem cells (MSCs). […] Compounds. […] If the clinical Cmax for an agent had not been determined, the highest concentration tested was 10 microM. […]
Entries and their viability, T/C
Numbers only here, please. The scale is %.

COMPOUND	viability, T/C [%]
O=c1[nH]cc(F)c(=O)[nH]1 + CN1CCN(c2cc(C(=O)Nc3cc4cc(-c5cnn(C)c5)ccc4cn3)ccn2)CC1	0.06
C#Cc1c(F)ccc2cc(O)cc(-c3ncc4c(N5CC6CCC(C5)N6)nc(OCC56CCCN5CC(F)C6)nc4c3F)c12 (stereo not drawn) + CN1CCN(c2cc(C(=O)Nc3cc4cc(-c5cnn(C)c5)ccc4cn3)ccn2)CC1	0.36

Consider the compound Nc1ccn(C2OC(CO)C(O)C2(F)F)c(=O)n1 (stereo not drawn) + CN1CCN(c2cc(C(=O)Nc3cc4cc(-c5cnn(C)c5)ccc4cn3)ccn2)CC1 and give its recorded viability, T/C.
0.12
